Tested on: TRBV9+TRAV38 antigen
Measurement description: BLI (OctetRed 96), antigen on AR2G sensors, antibody 126-2 nM, 1:1 model; run 1
Assay readout: kon (M⁻¹ s⁻¹)
State just the number; it will be interpreted in M⁻¹ s⁻¹.

Some solved cases for reference:
anti-TRBV9-3 monoclonal antibody (antibody, human IgG1, kappa, V domains shown) VH: QIQLVQSGPELREPGESVKLSCKASGYTFTDYLVHWVKQAPGKGLKWMGWINTYTGTPTYADDFEGRFVFSLEASASTANLQISNLKNEDTATYFCARSWRRGIRGLGFDYWGQGVFVTVSS VL: DVQMTQSPYNLAASPGESVSINCKASKSINKYLAWYQQKPGKPNKLLIYDGSTLQSGIPSRFSGSGSGTDFTLTIRGLEPEDFGLYYCQQHNEYPPTFGAGTKLELKR : 309000
anti-TRBV9-1 monoclonal antibody (antibody, human IgG1, kappa, V domains shown) VH: QIQLVQSGPELREPGESVKLSCKASGYTFTDYLVHWVKQAPGKGLKWMGWINTYTGTPTYADDFEGRFVFSLEASASTANLQISNLKNEDTATYFCARSWRRGLRGLGFDYWGQGVFVTVSS VL: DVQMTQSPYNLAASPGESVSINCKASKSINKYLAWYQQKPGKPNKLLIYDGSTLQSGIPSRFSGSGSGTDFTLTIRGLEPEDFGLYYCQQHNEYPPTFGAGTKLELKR : 441000
anti-TRBV9-2 monoclonal antibody (antibody, human IgG1, kappa, V domains shown) VH: QIQLVQSGPELREPGESVKLSCKASGYTFTDYLVHWVKQAPGKGLKWMGWINTYTGTPTYADDFEGRFVFSLEASASTANLQISNLKNEDTATYFCARSWRRGLRGIGFDYWGQGVFVTVSS VL: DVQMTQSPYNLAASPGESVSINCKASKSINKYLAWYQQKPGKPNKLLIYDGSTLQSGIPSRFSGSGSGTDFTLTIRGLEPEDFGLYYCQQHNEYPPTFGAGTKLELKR : 397000

With those in mind, consider the next binder.
Query: kon; subject: anti-TRBV9-4 monoclonal antibody (antibody, human IgG1, kappa, V domains shown) VH: QIQLVQSGPELREPGESVKLSCKASGYTFTDYLVHWVKQAPGKGLKWMGWINTYTGTPTYADDFEGRFVFSLEASASTANLQISNLKNEDTATYFCARSWRRGIRGIGFDYWGQGVFVTVSS VL: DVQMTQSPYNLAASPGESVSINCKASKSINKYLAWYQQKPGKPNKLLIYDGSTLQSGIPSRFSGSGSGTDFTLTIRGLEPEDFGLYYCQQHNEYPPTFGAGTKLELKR 713000

These data points were gathered from patent EP4810611A2.
